target: Myc;MaxL (Homo sapiens;Homo sapiens, UniProt P01106-1;P61244 1-439;1-160, |); test: EMSA; 0.01 nM probe; EMSA: 25 mM HEPES pH 7.6, 100 mM KCl, 1 mM DTT, 0.1 mM EDTA, 0.01% Triton, 30 min at room temperature; 6% polyacrylamide gel in 0.5X Tris/glycine; details: protein: recombinant;recombinant; tags: C-terminal His-tag (pET21a);C-terminal His-tag (pET21a); copies: 1;1; unlabeled in silver-stained EMSA
Sequence (P01106 16-454, chain 1 of 2): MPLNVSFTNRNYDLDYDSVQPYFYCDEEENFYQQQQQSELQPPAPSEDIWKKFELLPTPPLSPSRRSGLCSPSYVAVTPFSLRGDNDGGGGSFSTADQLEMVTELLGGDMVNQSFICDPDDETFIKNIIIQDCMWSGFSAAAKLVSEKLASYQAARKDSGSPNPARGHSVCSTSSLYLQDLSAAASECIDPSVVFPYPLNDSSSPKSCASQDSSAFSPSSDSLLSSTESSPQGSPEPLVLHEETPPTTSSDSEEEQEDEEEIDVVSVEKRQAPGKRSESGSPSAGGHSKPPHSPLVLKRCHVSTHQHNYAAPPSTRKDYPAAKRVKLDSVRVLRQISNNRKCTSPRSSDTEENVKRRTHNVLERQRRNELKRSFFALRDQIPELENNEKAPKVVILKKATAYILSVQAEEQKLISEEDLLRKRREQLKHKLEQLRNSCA
Sequence (P61244 whole entry, chain 2 of 2): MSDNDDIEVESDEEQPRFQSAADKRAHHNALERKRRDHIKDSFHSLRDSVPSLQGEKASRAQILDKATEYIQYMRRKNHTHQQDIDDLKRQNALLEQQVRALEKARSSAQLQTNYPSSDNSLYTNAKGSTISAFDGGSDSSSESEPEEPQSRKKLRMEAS
value kind: Kd (nM)
Give bare numbers, in nM.

Q: I am curious: what Kd value has been reported for CACGTG probe (26 bp) (dsDNA) DNA 1: GAGGGATCGGCACGTGGGATCGGAGG DNA 2: CCTCCGATCCCACGTGCCGATCCCTC ?
Ans: 0.1

Source of measurements: paper PMC4242493
